Molecular target: Albumin (Bos taurus)
Sequence (P02769 whole entry): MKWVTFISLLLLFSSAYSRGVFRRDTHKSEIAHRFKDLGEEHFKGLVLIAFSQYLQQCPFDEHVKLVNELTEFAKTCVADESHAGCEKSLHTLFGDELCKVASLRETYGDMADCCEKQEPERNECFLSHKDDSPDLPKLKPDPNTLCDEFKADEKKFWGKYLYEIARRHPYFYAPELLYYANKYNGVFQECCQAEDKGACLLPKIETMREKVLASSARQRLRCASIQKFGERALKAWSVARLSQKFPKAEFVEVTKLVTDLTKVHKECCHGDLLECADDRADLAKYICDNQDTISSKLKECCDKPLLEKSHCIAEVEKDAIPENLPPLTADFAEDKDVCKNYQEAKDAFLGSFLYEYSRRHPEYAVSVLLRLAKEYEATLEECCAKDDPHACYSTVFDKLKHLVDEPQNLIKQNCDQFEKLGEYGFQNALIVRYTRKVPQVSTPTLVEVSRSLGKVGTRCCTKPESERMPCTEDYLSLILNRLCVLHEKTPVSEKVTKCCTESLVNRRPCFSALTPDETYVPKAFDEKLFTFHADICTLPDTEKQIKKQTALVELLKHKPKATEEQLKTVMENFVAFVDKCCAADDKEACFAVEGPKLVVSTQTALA
Assay: Serum albumin binding
Conditions: cattle
Catalogue of Amount bound values
Number only, in M/g; omit the unit.

Guide cases for Amount bound, answers given:
molecule	Amount bound (M/g)
OC[C@H]1O[C@@H](n2cnc3c(NC4CCCCCC4)ncnc32)[C@H](O)[C@@H]1O	3.4
CC(C)Nc1ncnc2c1ncn2[C@@H]1O[C@H](CO)[C@@H](O)[C@H]1O	0.41
CC[C@H](C)Nc1ncnc2c1ncn2C1O[C@H](CO)[C@@H](O)[C@H]1O (single isomer, unassigned)	0.53
CC[C@@H](C)Nc1ncnc2c1ncn2[C@@H]1O[C@H](CO)[C@@H](O)[C@H]1O	0.36

Given the molecule CC(C)CNc1ncnc2c1ncn2C1O[C@H](CO)[C@@H](O)[C@H]1O (stereo not given in full) , what is its reported Amount bound?
0.74

Where these numbers come from: ChEMBL document CHEMBL1123137
